Reported IC50 against Cytochrome P450 1A2 (Homo sapiens, UniProt P05177), gathered from multiple publications, appears below.
- MEASUREMENT TARGET: Cytochrome P450 1A2 (Homo sapiens, UniProt P05177)
- Sequence (P05177 whole entry): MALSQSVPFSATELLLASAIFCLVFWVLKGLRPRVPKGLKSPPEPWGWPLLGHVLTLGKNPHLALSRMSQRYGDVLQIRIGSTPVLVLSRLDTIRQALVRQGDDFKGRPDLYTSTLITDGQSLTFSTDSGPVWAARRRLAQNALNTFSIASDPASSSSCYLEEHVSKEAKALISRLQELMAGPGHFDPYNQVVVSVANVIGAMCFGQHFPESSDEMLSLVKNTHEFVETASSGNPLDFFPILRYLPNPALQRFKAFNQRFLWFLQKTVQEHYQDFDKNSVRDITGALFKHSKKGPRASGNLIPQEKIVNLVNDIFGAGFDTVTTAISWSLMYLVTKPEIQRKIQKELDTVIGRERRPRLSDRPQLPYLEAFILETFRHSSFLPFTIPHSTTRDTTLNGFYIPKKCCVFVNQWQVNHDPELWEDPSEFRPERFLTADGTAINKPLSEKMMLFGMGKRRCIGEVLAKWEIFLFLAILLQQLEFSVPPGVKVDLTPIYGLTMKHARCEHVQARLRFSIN

- MOLECULE SMILES: "Cc1nn([C@H](C)c2ccc(Cl)cc2Cl)c2nc(N3CC([C@H]4CCCN(CCO)C4)C3)cnc12"
  MEASUREMENT TARGET: "Cytochrome P450 1A2 (Homo sapiens, UniProt P05177)"
  IC50: "> 40 µM"
- MOLECULE SMILES: "CN(c1ccc2[nH]c(=O)sc2c1)c1nc(-c2ccccn2)cs1"
  MEASUREMENT TARGET: "Cytochrome P450 1A2 (Homo sapiens, UniProt P05177)"
  IC50: "0.36 µM"
- MOLECULE SMILES: "CNC(=O)N1CCc2c(c(N3CCCc4cc(-c5cnn(C)c5)c(C(F)F)cc43)nn2C2CCOCC2)C1"
  MEASUREMENT TARGET: "Cytochrome P450 1A2 (Homo sapiens, UniProt P05177)"
  IC50: "> 10 µM"
- MOLECULE SMILES: "C[C@H]([C@@H](c1ccc2cc(OCC3(C(=O)O)CCCCC3)ccc2c1)n1ccnc1)N(C)C"
  MEASUREMENT TARGET: "Cytochrome P450 1A2 (Homo sapiens, UniProt P05177)"
  IC50: "> 5 µM"
- MOLECULE SMILES: "Cc1cc(C(=O)NCCO)ncc1-c1cc(C(F)(F)F)cc2[nH]ncc12"
  MEASUREMENT TARGET: "Cytochrome P450 1A2 (Homo sapiens, UniProt P05177)"
  IC50: "> 50.1 µM"
